From: patent US20210147536A1

# tgt: T1, human LAG-3-6*His tag recombinant fusion protein (human, UniProt P18627 23-450, biotin-labelled in panning and in Example 9)
# T1 construct: Bought protein; also called hLAG-3-6*his tag recombinant protein; human LAG-3-his tag recombinant fusion protein
# T1 sequence: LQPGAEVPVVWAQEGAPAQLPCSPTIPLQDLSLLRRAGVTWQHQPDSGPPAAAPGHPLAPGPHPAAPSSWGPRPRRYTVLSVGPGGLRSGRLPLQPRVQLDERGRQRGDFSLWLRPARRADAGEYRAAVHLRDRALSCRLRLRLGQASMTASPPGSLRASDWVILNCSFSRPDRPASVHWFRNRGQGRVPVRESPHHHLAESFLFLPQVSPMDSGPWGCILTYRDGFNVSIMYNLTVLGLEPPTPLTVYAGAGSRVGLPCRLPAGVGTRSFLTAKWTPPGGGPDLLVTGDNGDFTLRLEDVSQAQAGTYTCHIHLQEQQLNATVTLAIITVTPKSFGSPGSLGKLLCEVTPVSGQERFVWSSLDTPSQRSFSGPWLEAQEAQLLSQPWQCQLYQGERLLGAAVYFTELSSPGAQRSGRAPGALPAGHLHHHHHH
# assay.procedure: ELISA, human LAG-3-6*His coated at 1 µg/ml, IgG4 titrated, anti-hIgG HRP
Kindly state EC50 for each of the entries shown.
Give a bare numeral; the unit µg/mL is implied.

Req: Need EC50 of anti-human LAG-3 full human monoclonal antibody MV705-3 (antibody, human IgG4, V domains shown, Full IgG4 with lambda light chain; also called MV705-3(DD + DD)) VH: EVQLLESGAEVKKPGASVKVSCKASGYTFTSYGISWVRQAPGQGLEWMGWISAYNGNTNYAQKLQGRVTMTTDTSTSTAYMELRSLRSDDTAVYYCARDGWWELLRPDDAFDIWGQGTTVTVSS VL: QLVLTQSPSVSVSPGQTASITCSGDKLGDKYAYWYQQKPGQAPVLVIYYDSDRPSGIPERFSGSNSGNTATLTISRVEAGDEADYYCQVWDSSSDQVVFGGGTQLTVLG , thanks.
Resp: 0.364

Req: Need EC50 of IgG4 monoclonal antibody 11454 (antibody, V domains shown, IgG4, lambda) VH: EVQLLQSGGGLVQPGGSLRLSCAASGFTFSSYEMNWVRQAPGKGLEWVSYISSSGSTIYYADSVKGRFTISRDNAKNSLYLQMNSLRAEDTAVYYCARVGLLDAFDIWGQGTMVTVSS VL: QSVLTQPPSVSAAPGQKVTISCSGSSSNIGNNYVSWYQLIPEKAPRLLIYDDDKRPSGIPDRFSGSQSGTSATLGITGLQTGDEADYFCGTWDNSLSGAVFGGGTQLIILG , thanks.
Resp: 85.8

Req: Need EC50 of IgG4 monoclonal antibody 11455 (antibody, V domains shown, IgG4, kappa) VH: EVHLVESGGGVVQPGRSLRLSCAASGFTFSNYAMHWVRQAPGKGLEWVAVISYDGNNQYYADSVKGRFTISRDNSKNTLYLQMNSLRAEDTAVFYCARSIGFLESDAFDIWGQGTTVTVSS VL: EIVLMQSPGTLSLSPGERATLSCRASQSFSDGSLAWYQQKPGQPPRLVIYDASKRATGIPDRFSGSRSGTEFTLTISSLQSEDFAVYSCQQYYNWPPTFGQGTRLEIK , thanks.
Resp: 83.1

Req: Need EC50 of IgG4 monoclonal antibody 11487 (antibody, V domains shown, IgG4, lambda) VH: QVQLVESGGGLVQPGRSLRLSCVASGFTFDDHAMHWVRQTPEKGLEWVSGISWNGGDIRYADSVKGRFIISRDNAKNSLHLQMNSLRGEDTAVYYCARDGGYSVLRAFDIWGQGTTVTVSS VL: QSVLTQPPSVSGAPGQRVTISCTGSSSNIGAGYDVHWYQQLPGTAPKLLIYGNSNRPSGVPDRFSGSKSGTSASLAITGLQAEDEADYYCQSYDSSLSGWVFGGGTQLIILG , thanks.
Resp: 3.35
